These measurements were taken from patent US6790866B2.

For each entry below, report its Ki value.
TGT: prostanoid receptor subtype (mouse EP1) (Mus musculus, UniProt P35375)
Construct: expressed in transfected cells; host or cells: CHO cells (membrane fraction)
Sequence (P35375 whole entry): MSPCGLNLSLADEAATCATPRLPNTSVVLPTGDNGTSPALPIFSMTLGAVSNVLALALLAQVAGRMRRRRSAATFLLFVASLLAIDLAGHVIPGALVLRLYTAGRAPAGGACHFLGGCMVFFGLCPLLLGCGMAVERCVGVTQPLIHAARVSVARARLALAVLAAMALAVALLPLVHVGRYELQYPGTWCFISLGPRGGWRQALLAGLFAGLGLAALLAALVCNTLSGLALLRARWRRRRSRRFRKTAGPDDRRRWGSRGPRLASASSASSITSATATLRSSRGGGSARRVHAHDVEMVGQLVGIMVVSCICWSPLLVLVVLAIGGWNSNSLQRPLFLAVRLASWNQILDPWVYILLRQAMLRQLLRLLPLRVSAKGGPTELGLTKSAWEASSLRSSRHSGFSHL
EXPERIMENT DESCRIPTION: Binding assay using expression cell of prostanoid receptor subtype (3H-PGE2 competition, CHO cell membrane fraction)
CONDITION CONTEXT: membrane fraction of CHO cell expressing mouse EP1; 3H-PGE2 2.5 nM; Ki=IC50/(1+([C]/Kd)); read-out: dissociation constant Ki
Write the answer as a number in nM, unit excluded.

// recorded Ki for O=C(O)c1ccc(COc2cc(Cl)ccc2NS(=O)(=O)c2ccccc2)nc1 : 480

// recorded Ki for CC(C)N(c1ccc(C(F)(F)F)cc1OC[C@H]1CC[C@H](C(=O)O)CC1)S(=O)(=O)c1ccccc1 : 16

// recorded Ki for CC(C)N(c1ccc(C(F)(F)F)cc1OCc1ccc(C#CC(=O)O)cc1)S(=O)(=O)c1ccccc1 : 1.3

// recorded Ki for O=C(O)c1ccc(COc2cc(C(F)(F)F)ccc2N(C2CCCC2)S(=O)(=O)c2ccccc2)cc1 : 1.6
